All values here come from patent US8557796B2.

Tested on: batrachotoxin (BTX) binding site (binding site 2) of the sodium channel
experiment notes: Bond test on the sodium channel, binding site 2 (BTX bond), [3H]-batrachotoxinin A20 α-benzoate displacement
condition description: rat cerebrocortex synaptosomes
Each entry below carries its recorded BTX bond, 10 μM, % inhibition.
Record the value in %, omitting the unit from your answer.

Prompt: What value of BTX bond, 10 μM, % inhibition has been recorded for this entry: O=C(NCc1cccs1)C1=NOC2(CCN(C(=O)c3ccc(F)c(Cl)c3)CC2)C1
Response: 73

Prompt: What value of BTX bond, 10 μM, % inhibition has been recorded for this entry: Cc1ccccc1N1CCN(C(=O)C2=NOC3(CCN(S(=O)(=O)c4cccs4)CC3)C2)CC1
Response: 74

---

Test system: batrachotoxin (BTX) binding site (binding site 2) of the sodium channel
experiment notes: Bond test on the sodium channel, binding site 2 (BTX bond), [3H]-batrachotoxinin A20 α-benzoate displacement
condition description: rat cerebrocortex synaptosomes
Lab note: compare BTX bond, 10 μM, % inhibition against 60%. Equal or greater, write True. Smaller, write False.

Observe how each entry below is paired with its result.
molecule | category label
COc1ccc(S(=O)(=O)N2CCC3(CC2)CC(C(=O)NC2CC2c2ccccc2)=NO3)cc1 (stereo not shown) [Example 182] | False
Cc1cccc(N2CCN(C(=O)C3=NOC4(CCN(S(=O)(=O)c5cccs5)CC4)C3)CC2C)c1 (stereo not shown) [Example 31] | True
CCOC(=O)C1CCCCN1C(=O)C1=NOC2(CCN(S(=O)(=O)c3ccc(Cl)s3)CC2)C1 (stereo not shown) [Example 155] | False
CN1CCCC1CCNC(=O)C1=NOC2(CCN(S(=O)(=O)c3ccc(Cl)s3)CC2)C1 (stereo not shown) [Example 61] | True
Cc1ccc(S(=O)(=O)N2CCC3(CC2)CC(C(=O)N2CCN(C(C)c4ccccc4)CC2)=NO3)cc1 (stereo not shown) [Example 32] | True

Prompt: Given the entry COc1cc(OC)cc(N2CCN(C(=O)C3=NOC4(CCN(S(=O)(=O)c5ccc(Cl)s5)CC4)C3)CC2)c1 [Example 71] , answer whether its BTX bond, 10 μM, % inhibition meets or surpasses 60%.
Response: False

Prompt: Given the entry COc1ccc(S(=O)(=O)N2CCC3(CC2)CC(C(=O)NC(C)Cc2ccc(Cl)cc2)=NO3)cc1 (stereo not shown) [Example 164] , answer whether its BTX bond, 10 μM, % inhibition meets or surpasses 60%.
Response: False

---

Tested on: batrachotoxin (BTX) binding site (binding site 2) of the sodium channel
experiment notes: Bond test on the sodium channel, binding site 2 (BTX bond), [3H]-batrachotoxinin A20 α-benzoate displacement
condition description: rat cerebrocortex synaptosomes
Each entry below carries its recorded BTX bond, 10 μM, % inhibition.
Record the value in %, omitting the unit from your answer.

Below: 5 compounds and their reported BTX bond, 10 μM, % inhibition.
compound | BTX bond, 10 μM, % inhibition (%)
O=C(NCc1cccs1)C1=NOC2(CCN(C(=O)COc3cccc(Cl)c3)CC2)C1 [Example 96] | 72
CCSc1ncccc1C(=O)N1CCC2(CC1)CC(C(=O)NCc1ccccc1)=NO2 [Example 115] | 48
Cc1cc(C(=O)N2CCC3(CC2)CC(C(=O)NCc2ccccc2)=NO3)c(C)o1 [Example 217] | 51
O=C(NCc1ccccc1)C1=NOC2(CCN(S(=O)(=O)c3cccc(Cl)c3)CC2)C1 [Example 210] | 62
CCOC(=O)C1CCCCN1C(=O)C1=NOC2(CCN(C(=O)c3ccc(C(C)(C)C)cc3)CC2)C1 (centres unmarked) [Example 195] | 85

Prompt: What value of BTX bond, 10 μM, % inhibition has been recorded for this entry: O=C(NC(c1ccccc1)c1ccccc1)C1=NOC2(CCN(S(=O)(=O)c3ccc(Cl)s3)CC2)C1 [Example 40]
Response: 47

Prompt: What value of BTX bond, 10 μM, % inhibition has been recorded for this entry: COc1ccc(OC)c(CN(Cc2ccco2)C(=O)C2=NOC3(CCN(S(=O)(=O)c4ccc(F)cc4)CC3)C2)c1 [Example 160]
Response: 75

Prompt: What value of BTX bond, 10 μM, % inhibition has been recorded for this entry: O=C(Nc1ccccc1)C1=NOC2(CCN(C(=O)c3ccc(Br)cc3)CC2)C1 [Example 181]
Response: 50

---

Tested on: batrachotoxin (BTX) binding site (binding site 2) of the sodium channel
experiment notes: Bond test on the sodium channel, binding site 2 (BTX bond), [3H]-batrachotoxinin A20 α-benzoate displacement
condition description: rat cerebrocortex synaptosomes
measured parameter: BTX bond, 10 μM, % inhibition (%)
Record the value in %, omitting the unit from your answer.

molecule | reading
Cc1ccc(S(=O)(=O)N2CCC3(CC2)CC(C(=O)N(CCc2ccccc2)Cc2ccccc2)=NO3)cc1 [Example 18] | 53
Cc1cc(C(=O)N2CCC3(CC2)CC(C(=O)NCC(C)C)=NO3)ccc1Br [Example 88] | 45
CC(NC(=O)C1=NOC2(CCN(S(=O)(=O)c3cccs3)CC2)C1)c1ccccc1 (centres unmarked) [Example 8] | 63
CN(C)S(=O)(=O)N1CCC2(CC1)CC(C(=O)N1CCN(CCCc3ccccc3)CC1)=NO2 [Example 80] | 44
Cc1ccc(S(=O)(=O)N2CCC3(CC2)CC(C(=O)NCc2cc(Cl)cc(Cl)c2)=NO3)cc1 [Example 63] | 38

Prompt: What value of BTX bond, 10 μM, % inhibition has been recorded for this entry: CC(C)CC(NC(=O)C1=NOC2(CCN(S(=O)(=O)c3cccc(C(F)(F)F)c3)CC2)C1)C(=O)OC(C)(C)C (centres unmarked) [Example 214]
Response: 61

Prompt: What value of BTX bond, 10 μM, % inhibition has been recorded for this entry: O=C(C1=NOC2(CCN(S(=O)(=O)c3ccc(F)cc3)CC2)C1)N1CCN(CCCc2ccccc2)CC1 [Example 186]
Response: 56

Prompt: What value of BTX bond, 10 μM, % inhibition has been recorded for this entry: O=C(NCC1COc2ccccc2O1)C1=NOC2(CCN(S(=O)(=O)c3ccc(Cl)s3)CC2)C1 (centres unmarked) [Example 194]
Response: 68

---

Test system: batrachotoxin (BTX) binding site (binding site 2) of the sodium channel
experiment notes: Bond test on the sodium channel, binding site 2 (BTX bond), [3H]-batrachotoxinin A20 α-benzoate displacement
condition description: rat cerebrocortex synaptosomes
Each entry below carries its recorded BTX bond, 10 μM, % inhibition.
Record the value in %, omitting the unit from your answer.

Below: 4 molecules and their reported BTX bond, 10 μM, % inhibition.
molecule | unit symbol | BTX bond, 10 μM, % inhibition
O=C(NCc1ccc2c(c1)OCO2)C1=NOC2(CCN(S(=O)(=O)c3ccc(Cl)s3)CC2)C1 | % | 56
CC(NC(=O)C1=NOC2(CCN(S(=O)(=O)c3ccc(Cl)s3)CC2)C1)c1cccc2c1OCCO2 (centres unmarked) | % | 60
O=C(NC1CCCC1)C1=NOC2(CCN(C(=O)c3ccc([N+](=O)[O-])cc3Cl)CC2)C1 | % | 64
Cc1ccc(F)cc1S(=O)(=O)N1CCC2(CC1)CC(C(=O)NCCN(C)C)=NO2 | % | 70

Prompt: What value of BTX bond, 10 μM, % inhibition has been recorded for this entry: COc1ccc(Br)cc1S(=O)(=O)N1CCC2(CC1)CC(C(=O)NC1CCCC1)=NO2
Response: 62

Prompt: What value of BTX bond, 10 μM, % inhibition has been recorded for this entry: O=C(NCc1cccs1)C1=NOC2(CCN(S(=O)(=O)c3ccc([N+](=O)[O-])cc3)CC2)C1
Response: 65

Prompt: What value of BTX bond, 10 μM, % inhibition has been recorded for this entry: O=C(NCc1ccccc1)C1=NOC2(CCN(C(=O)c3ccc(F)c(Cl)c3)CC2)C1
Response: 53

Prompt: What value of BTX bond, 10 μM, % inhibition has been recorded for this entry: O=C(NCc1cccs1)C1=NOC2(CCN(C(=O)c3ccc(Br)cc3)CC2)C1
Response: 61

Prompt: What value of BTX bond, 10 μM, % inhibition has been recorded for this entry: Cc1ccc(F)cc1S(=O)(=O)N1CCC2(CC1)CC(C(=O)NCc1cccs1)=NO2
Response: 86

Prompt: What value of BTX bond, 10 μM, % inhibition has been recorded for this entry: COc1cccc(CN2CCC(NC(=O)C3=NOC4(CCN(S(=O)(=O)c5cc(Cl)ccc5Cl)CC4)C3)C2)c1 (centres unmarked)
Response: 91

Prompt: What value of BTX bond, 10 μM, % inhibition has been recorded for this entry: Cc1ccc([N+](=O)[O-])cc1S(=O)(=O)N1CCC2(CC1)CC(C(=O)NCCN(C)C)=NO2
Response: 66

---

Each entry below carries its recorded BTX bond, 10 μM, % inhibition.
System: batrachotoxin (BTX) binding site (binding site 2) of the sodium channel
experiment notes: Bond test on the sodium channel, binding site 2 (BTX bond), [3H]-batrachotoxinin A20 α-benzoate displacement
condition description: rat cerebrocortex synaptosomes

Below: 5 compounds and their reported BTX bond, 10 μM, % inhibition.
compound | measured parameter | reading
O=C(NCC(c1ccccc1)c1ccccc1)C1=NOC2(CCN(S(=O)(=O)c3ccc(Cl)s3)CC2)C1 | BTX bond, 10 μM, % inhibition | 83%
CCOC(=O)N1CCC(NC(=O)C2=NOC3(CCN(C(=O)C4CC4c4ccccc4)CC3)C2)CC1 (stereo not shown) | BTX bond, 10 μM, % inhibition | 47%
O=C(Cc1ccc(F)c(F)c1)N1CCN(C(=O)C2=NOC3(CCN(S(=O)(=O)c4cccc(C(F)(F)F)c4)CC3)C2)CC1 | BTX bond, 10 μM, % inhibition | 52%
N#CCCN(Cc1cccnc1)C(=O)C1=NOC2(CCN(S(=O)(=O)c3cc(Cl)ccc3Cl)CC2)C1 | BTX bond, 10 μM, % inhibition | 50%
Cc1ccc(S(=O)(=O)N2CCC3(CC2)CC(C(=O)N(CCC#N)Cc2ccccc2)=NO3)cc1 | BTX bond, 10 μM, % inhibition | 52%

Prompt: What value of BTX bond, 10 μM, % inhibition has been recorded for this entry: C=CCOC(=O)C(CC(=O)OC(C)(C)C)NC(=O)C1=NOC2(CCN(S(=O)(=O)c3cc(Cl)ccc3Cl)CC2)C1 (stereo not shown)
Response: 47%

Prompt: What value of BTX bond, 10 μM, % inhibition has been recorded for this entry: O=C(NCCN1CCCC1)C1=NOC2(CCN(S(=O)(=O)c3ccc(F)c(Cl)c3)CC2)C1
Response: 69%
